Hello, the source for this data is patent US6521594, in case you need it.

System Name: Vitronectin receptor (human) (UniProt P06756)
Assay Procedure: competition, ELISA or liposome assay, vitronectin coated
Non-standard residues stand in square brackets, D forms with d. No end group written: not given here. Pen = CC(C)(S)[C@H](N)C(=O)O
Measured Parameter: IC50

>>> result("G[Pen]GRGDRPCR (cysteine pairing not given here)")
"10 nM"
